Test system: T1, Bcl-2 (UniProt P10415-1 1-211, limits assumed)
T1 construct: also called anti-apoptotic member of the Bcl-2 protein family
T1 sequence (P10415 1-211 limits assumed): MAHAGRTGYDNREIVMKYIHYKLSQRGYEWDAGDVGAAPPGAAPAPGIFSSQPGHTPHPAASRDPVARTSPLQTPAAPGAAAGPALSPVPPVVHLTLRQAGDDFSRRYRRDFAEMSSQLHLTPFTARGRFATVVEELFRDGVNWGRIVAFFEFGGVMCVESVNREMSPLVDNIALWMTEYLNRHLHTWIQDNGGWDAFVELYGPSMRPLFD
Test method notes: fluorescence polarisation competition; tracer Bak BH3 carboxyfluorescein 15 nM, Bcl-2 1 µM
Measurement type: Ki (nM)
Numbers only here, please. The scale is nM.

Query: Return reported Ki; argument: GTMENLSRRLKVTGDLFDIMSGQTDV [Beclin peptide, motif GTMENLSRRLKVTGDLFDIMSGQTDV of the Beclin protein]
Result: 1800
